biological target: Nuclear receptor coactivator 3 (Homo sapiens) (UniProt Q9Y6Q9); experiment: SRC3 coactivator transcriptional activity inhibitors, confirmation, cell-based, luminescence, quadruplicate (AID 588792); details: HEK293 GAL4-SRC3 luciferase reporter, at 3.6 µM
Sequence (Q9Y6Q9 whole entry, looked up, the tested form may be a part): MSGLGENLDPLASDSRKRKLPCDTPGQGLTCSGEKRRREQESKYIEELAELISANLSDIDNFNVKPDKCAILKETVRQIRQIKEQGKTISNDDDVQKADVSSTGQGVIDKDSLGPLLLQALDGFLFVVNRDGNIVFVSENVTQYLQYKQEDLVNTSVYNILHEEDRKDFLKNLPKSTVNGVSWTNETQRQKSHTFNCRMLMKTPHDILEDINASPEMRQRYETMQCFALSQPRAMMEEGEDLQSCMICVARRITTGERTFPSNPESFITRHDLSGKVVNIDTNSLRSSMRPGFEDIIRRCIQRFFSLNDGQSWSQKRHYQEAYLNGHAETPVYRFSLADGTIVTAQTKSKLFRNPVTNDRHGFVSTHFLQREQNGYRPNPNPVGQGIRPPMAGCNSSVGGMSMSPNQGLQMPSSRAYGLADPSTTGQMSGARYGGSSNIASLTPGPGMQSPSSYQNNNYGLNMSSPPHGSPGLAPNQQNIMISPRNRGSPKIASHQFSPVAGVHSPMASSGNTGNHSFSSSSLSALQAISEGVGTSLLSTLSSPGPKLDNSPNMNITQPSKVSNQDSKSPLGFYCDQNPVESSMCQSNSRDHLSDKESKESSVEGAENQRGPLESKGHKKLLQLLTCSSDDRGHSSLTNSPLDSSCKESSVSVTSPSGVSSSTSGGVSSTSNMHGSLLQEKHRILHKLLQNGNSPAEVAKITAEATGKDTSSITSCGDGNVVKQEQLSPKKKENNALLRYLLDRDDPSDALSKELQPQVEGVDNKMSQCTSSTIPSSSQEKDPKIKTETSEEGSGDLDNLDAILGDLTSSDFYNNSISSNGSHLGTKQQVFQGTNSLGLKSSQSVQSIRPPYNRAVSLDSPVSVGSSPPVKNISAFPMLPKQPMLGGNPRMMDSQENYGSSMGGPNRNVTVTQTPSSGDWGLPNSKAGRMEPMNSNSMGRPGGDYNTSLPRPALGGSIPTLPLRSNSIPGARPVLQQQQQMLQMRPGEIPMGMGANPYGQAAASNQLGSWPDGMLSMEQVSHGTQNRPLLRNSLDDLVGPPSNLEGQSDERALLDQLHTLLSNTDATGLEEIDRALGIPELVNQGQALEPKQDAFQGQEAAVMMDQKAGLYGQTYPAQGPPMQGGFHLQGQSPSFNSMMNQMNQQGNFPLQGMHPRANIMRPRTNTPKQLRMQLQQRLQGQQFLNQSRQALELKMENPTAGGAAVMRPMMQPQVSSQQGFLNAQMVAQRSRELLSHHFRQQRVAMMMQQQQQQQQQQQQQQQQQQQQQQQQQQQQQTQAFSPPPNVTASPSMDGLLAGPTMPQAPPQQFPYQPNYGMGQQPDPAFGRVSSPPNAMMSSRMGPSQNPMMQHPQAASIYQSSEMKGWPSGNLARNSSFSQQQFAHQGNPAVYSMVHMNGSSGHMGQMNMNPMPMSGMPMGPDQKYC
Activity calls are given as the source filed them.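 The calls were made as follows: active = mean inhibition over 43.08%, the solvent-only control mean plus 3 SD; inactive = the rest.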
Parameter call: string, one of active, inactive

Please review the entries below; each comes with its answer.
molecule: O=C(NC(NC(=S)N1CCOCC1)C(Cl)(Cl)Cl)c1ccc(Cl)cc1 (stereo unspecified)
class: inactive
//
molecule: CC1CCN(Cc2c(C(=O)N/N=C/c3ccccc3O)nnn2-c2nonc2N)CC1
class: active
//
molecule: Cc1ccc(-n2c(O)c(C=Nc3cc(C)on3)c3ccccc3c2=O)c(C)c1
class: active
//
molecule: O=C(CCl)Nc1cccc(-c2cnc3ccccc3n2)c1
class: inactive
//
molecule: Cc1ccc2c(c1)c(C)cc[n+]2Cc1ccccc1
class: inactive

*Q* Recorded call for Cc1ccc(S(=O)(=O)NCCC(=O)N2CCN(c3ccccc3)CC2)cc1C ?
*A* inactive
